target: BACE1 (Homo sapiens (Human), UniProt P56817); assay: BACE1 cell assay; type: cell-based; conditions: read-out: IC50 IP (μM) BACE1 Cell
Sequence (P56817 46-501, species assumed): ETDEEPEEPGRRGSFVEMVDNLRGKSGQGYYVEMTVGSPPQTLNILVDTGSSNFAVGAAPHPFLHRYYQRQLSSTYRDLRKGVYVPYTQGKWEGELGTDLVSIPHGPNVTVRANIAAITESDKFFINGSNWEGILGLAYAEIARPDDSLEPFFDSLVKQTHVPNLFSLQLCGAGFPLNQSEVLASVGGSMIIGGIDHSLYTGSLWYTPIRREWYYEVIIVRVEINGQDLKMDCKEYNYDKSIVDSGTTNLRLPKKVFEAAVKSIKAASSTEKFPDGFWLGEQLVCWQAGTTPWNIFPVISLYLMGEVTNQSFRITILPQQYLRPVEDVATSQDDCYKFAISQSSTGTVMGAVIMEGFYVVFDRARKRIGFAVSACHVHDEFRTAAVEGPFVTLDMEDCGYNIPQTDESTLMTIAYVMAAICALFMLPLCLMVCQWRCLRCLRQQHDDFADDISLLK
measurement label: IC50
Write down the value, and be sure its unit follows.

- compound smiles: "C#Cc1ccc(/C(F)=C/c2ccc(F)c([C@@]3(C)N=C(N)S[C@@]4(C(=O)N(C)C)C[C@H]43)c2)nc1"
  obs value: "0.0127 µM"
- compound smiles: "COC(=O)[C@]12C[C@H]1[C@@](C)(c1cc(/C=C(\\F)c3ccc(Cl)cn3)cnc1F)N=C(N)S2"
  obs value: "1.76 µM"
- compound smiles: "C#CCOc1cnc(/C(F)=C/c2cnc(F)c([C@@]3(C)N=C(N)S[C@@]4(C(=O)OC)C[C@H]43)c2)cn1"
  obs value: "0.0949 µM"

Request: Need IC50, item `C[C@]1(c2cc(/C=C(\F)c3ccc(Cl)cn3)ccc2F)N=C(N)S[C@@]2(C(=O)Nc3ccccc3)C[C@H]21`
Result: 0.291 µM

====

target: BACE1 (Homo sapiens (Human)); assay: BACE1 cell assay; type: cell-based; details: read-out: IC50 IP (μM) BACE1 Cell
measurement label: log10(IC50) (log10 of the value in µM)
Recall that a logarithmic scale is used here: each number is log10 of IC50 in µM.

Observe how each entry below is paired with its result.
- compound: "C[C@H]1[C@@H](F)CCN1C(=O)[C@]12C[C@H]1[C@@](C)(c1cc(/C=C(\\F)c3ccc(C#N)cn3)ccc1F)N=C(N)S2"
  log10(IC50): -3.00
- compound: "C[C@]1(c2cc(/C=C(\\F)c3cnc(N4CCOC4=O)cn3)ccc2F)N=C(N)S[C@@]2(C(=O)N3CCOCC3)C[C@H]21"
  log10(IC50): 0.34
- compound: "C[C@@H]1[C@H](F)CCN1C(=O)[C@]12C[C@H]1[C@@](C)(c1cc(/C=C(\\F)c3ccc(C#N)cn3)ccc1F)N=C(N)S2"
  log10(IC50): -2.70
- compound: "C[C@@H]1CCN1C(=O)[C@]12C[C@H]1[C@@](C)(c1cc(/C=C(\\F)c3ccc(Cl)cn3)ccc1F)N=C(N)S2"
  log10(IC50): -1.57
- compound: "COC(=O)[C@]12C[C@H]1[C@@](C)(c1cc(/C=C(\\F)c3cnc(OCc4ncco4)cn3)ccc1F)N=C(N)S2"
  log10(IC50): -0.42
- compound: "C[C@]1(c2cc(/C=C(\\F)c3ccc(C#N)cn3)ccc2F)N=C(N)S[C@@]2(C(=O)N3CCCC3)C[C@H]21"
  log10(IC50): -2.42

Request: What does the data say about its log10(IC50)? Entry: `C[C@]1(c2cc(/C=C(\F)c3ccc(C#N)cn3)ccc2F)N=C(N)S[C@@]2(C(=O)N3CCOCC34CCC4)C[C@H]21`
Result: -2.49

Request: Reported log10(IC50), compound `C[C@@H]1COC[C@H](C)N1C(=O)[C@]12C[C@H]1[C@@](C)(c1cc(/C=C(\F)c3ccc(C#N)cn3)ccc1F)N=C(N)S2` : ____
Result: -2.66

====

target: Cathepsin D (CatD) (Homo sapiens (Human), UniProt P07339); assay: CatD assay; assay type: biochemical; details: read-out: IC50 IP (μM) CatD
Sequence (P07339 65-412, species assumed): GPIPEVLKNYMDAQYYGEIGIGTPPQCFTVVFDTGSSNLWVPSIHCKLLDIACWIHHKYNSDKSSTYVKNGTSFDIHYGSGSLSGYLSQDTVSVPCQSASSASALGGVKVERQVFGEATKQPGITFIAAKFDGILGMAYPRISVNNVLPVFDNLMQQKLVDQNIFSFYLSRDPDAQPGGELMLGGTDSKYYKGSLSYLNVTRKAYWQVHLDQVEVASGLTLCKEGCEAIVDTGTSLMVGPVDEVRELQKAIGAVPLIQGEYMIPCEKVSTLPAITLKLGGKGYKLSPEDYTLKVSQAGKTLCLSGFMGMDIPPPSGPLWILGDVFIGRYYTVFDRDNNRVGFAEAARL
measurement label: IC50

- compound: "C[C@]1(c2cc(/C=C(\\F)c3ccc(C#N)cn3)ccc2F)N=C(N)S[C@@]2(C(=O)N3CCC(F)CC3)C[C@H]21 [Example 326]"
  IC50: "648 µM"

Request: GET /values?readout=IC50&item= C#Cc1cnc(/C(F)=C/c2ccc(F)c([C@@]3(C)N=C(N)S[C@@]4(C(=O)N(C)C)C[C@H]43)c2)cn1 [Example 205]
Result: 113 µM

Request: Could you tell me which IC50 is on file for C[C@]1(c2cc(/C=C(\F)c3ccc(Cl)cn3)ccc2F)N=C(N)S[C@@]2(CO)C[C@H]21 [Example 113] ?
Result: 400 µM

Request: Please look up its IC50: CN(C)C(=O)[C@]12C[C@H]1[C@@](C)(c1cc(/C=C(\F)c3cnc(OCc4ncco4)cn3)ccc1F)N=C(N)S2 [Example 154]
Result: 107 µM

Request: Requested field: IC50. Item: COC[C@]12C[C@H]1[C@@](C)(c1cc(/C=C(\F)c3cnc(OC[C@H](C)OC)cn3)ccc1F)N=C(N)S2 [Example 265]
Result: 1320 µM

Request: Please report the recorded IC50 for COC[C@]12C[C@H]1[C@@](C)(c1cc(/C=C(\F)c3cnc(OCC(C)C)cn3)ccc1F)N=C(N)S2 [Example 274] .
Result: 181 µM

Request: Which measured IC50 value corresponds to C#C[C@H](C)Oc1cnc(/C(F)=C/c2ccc(F)c([C@@]3(C)N=C(N)S[C@@]4(COC)C[C@H]43)c2)cn1 [Example 264] ?
Result: 363 µM

Request: What does the data say about its IC50? Entry: CC#CCOc1cnc(/C(F)=C/c2cnc(F)c([C@@]3(C)N=C(N)S[C@@]4(C(=O)N(C)C)C[C@H]43)c2)cn1 [Example 289]
Result: 227 µM

Request: Requested read-out: IC50. Entry: C[C@]1(O)CCN(C(=O)[C@]23C[C@H]2[C@@](C)(c2cc(/C=C(\F)c4ccc(C#N)cn4)ccc2F)N=C(N)S3)C1 [Example 309]
Result: 401 µM

====

biological target: UniProt:P56817; assay: In vitro enzymatic BACE1 FRET assay; format: biochemical; settings: read-out: IC50 IP (μM) BACE1 Enzyme
Sequence (P56817 46-501): as the sequence (P56817 46-501, species assumed) above
Quick reference for IC50 among some molecules
Please reply with the bare figure in µM and do not write the unit itself.

# count of solved cases: 5
- molecule: "C[C@]1(c2cc(/C=C(\\F)c3ccc(C#N)cn3)ccc2F)N=C(N)S[C@@]2(C(=O)N3CCC(F)CC3)C[C@H]21 [Example 326]"
  study target: "UniProt:P56817"
  obs value: 0.0016
- molecule: "C#CCOc1cnc(/C(F)=C/c2ccc(F)c([C@@]3(C)N=C(N)S[C@@]4(C#N)C[C@H]43)c2)cn1 [Example 240]"
  study target: "UniProt:P56817"
  obs value: 0.0012
- molecule: "C[C@]1(c2cc(/C=C(\\F)c3ccc(Cl)cn3)ccc2F)N=C(N)S[C@@]2(C(=O)Nc3ccccc3)C[C@H]21 [Example 118]"
  study target: "UniProt:P56817"
  obs value: 0.0299
- molecule: "CN(C)C(=O)[C@]12C[C@H]1[C@@](C)(c1cc(/C=C(\\F)c3cnc(C#N)nc3)ccc1F)N=C(N)S2 [Example 173]"
  study target: "UniProt:P56817"
  obs value: 0.15
- molecule: "C#CCOc1cnc(/C(F)=C/c2cnc(F)c([C@@]3(C)N=C(N)S[C@@]4(C(=O)N5CC[C@H](F)C5)C[C@H]43)c2)cn1 [Example 280]"
  study target: "UniProt:P56817"
  obs value: 0.0013

Turning now to a further molecule:
Request: Form field: IC50 recorded for CNC(=O)[C@]12C[C@H]1[C@@](C)(c1cc(/C=C(\F)c3cnc(C#C[Si](C)(C)C)cn3)ccc1F)N=C(N)S2 [Example 166] with UniProt:P56817 (enter value)
Result: 0.0171

====

target: BACE1 (Homo sapiens (Human)); test: In vitro enzymatic BACE1 FRET assay; format: biochemical; conditions: read-out: IC50 IP (μM) BACE1 Enzyme
Cut-off 0.003 µM on IC50: below means Met, at or above means Not met.

- compound: "C#CCOc1cnc(/C(F)=C/c2cnc(F)c([C@@]3(C)N=C(N)S[C@@]4(C(=O)N(C)C)C[C@H]43)c2)cn1"
  discrete label: "Met"
- compound: "C[C@H]1[C@H](O)CCN1C(=O)[C@]12C[C@H]1[C@@](C)(c1cc(/C=C(\\F)c3ccc(C#N)cn3)ccc1F)N=C(N)S2"
  discrete label: "Met"
- compound: "C[C@H]1CCN1C(=O)[C@]12C[C@H]1[C@@](C)(c1cc(/C=C(\\F)c3ccc(Cl)cn3)ccc1F)N=C(N)S2 (single isomer, unassigned)"
  discrete label: "Not met"
- compound: "COC(=O)[C@]12C[C@H]1[C@@](C)(c1cc(/C=C(/F)c3ccc(Cl)cn3)cnc1F)N=C(N)S2"
  discrete label: "Not met"

Now examine the next entry.
Request: IC50 under 0.003 µM? Item: `C[C@]1(c2cc(/C=C(\F)c3ccc(Cl)cn3)ccc2F)N=C(N)S[C@@]2(CC#N)C[C@H]21`
Result: Not met

====

target: Cathepsin D (CatD) (Homo sapiens (Human), UniProt P07339); experiment: CatD assay; type: biochemical; details: read-out: IC50 IP (μM) CatD
measurement label: IC50 (µM)
Response body: numeric value in µM, unit text excluded.

Request: Quick one: IC50 for `CN(C)C(=O)[C@]12C[C@H]1[C@@](C)(c1cc(/C=C(\F)c3cnc(C#N)nc3)ccc1F)N=C(N)S2` ?
Result: 225

Request: Any idea what its IC50 is? The compound is `C[C@]1(c2cc(/C=C(\F)c3ccc(C#N)cn3)ccc2F)N=C(N)S[C@@]2(C(=O)N3CCNC(=O)CC3)C[C@H]21`
Result: 400
